experimental.target: Induced myeloid leukemia cell differentiation protein Mcl-1 (Homo sapiens)
Sequence (Q07820 whole entry): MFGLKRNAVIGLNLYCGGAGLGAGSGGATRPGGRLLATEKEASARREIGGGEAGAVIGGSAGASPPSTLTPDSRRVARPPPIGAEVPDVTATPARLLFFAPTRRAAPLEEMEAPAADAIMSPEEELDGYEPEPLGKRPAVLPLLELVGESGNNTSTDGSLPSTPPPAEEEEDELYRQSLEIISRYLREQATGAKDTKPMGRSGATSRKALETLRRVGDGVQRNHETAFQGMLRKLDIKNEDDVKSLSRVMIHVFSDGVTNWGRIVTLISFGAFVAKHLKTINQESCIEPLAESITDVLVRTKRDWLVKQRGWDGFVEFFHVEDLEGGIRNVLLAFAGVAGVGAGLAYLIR
Type: functional
Activity calls are given as the source filed them.
measured.property: IC50

q: Find IC50 (Induced myeloid leukemia cell differentiation protein Mcl-1 (Homo sapiens)) for the entry "Cc1ccc(C(=O)Nc2ccc(N3CCCC3)cc2)cc1"
a: 17.9 µM (not active)

q: Find IC50 (Induced myeloid leukemia cell differentiation protein Mcl-1 (Homo sapiens)) for the entry "CCc1nc(Nc2ccc(N3CCN(C(C)=O)CC3)cc2)c2oc3ccccc3c2n1"
a: 5.67 µM (not active)

q: Find IC50 (Induced myeloid leukemia cell differentiation protein Mcl-1 (Homo sapiens)) for the entry "O=C(Cc1ccc(S(=O)(=O)N2CCOCC2)s1)Nc1nc2c(s1)CCCC2"
a: 4.44 µM (active)

q: Find IC50 (Induced myeloid leukemia cell differentiation protein Mcl-1 (Homo sapiens)) for the entry "Nc1cc(C(=O)O)c(N)c2c1C(=O)c1ccccc1C2=O"
a: 3.71 µM (active)

q: Find IC50 (Induced myeloid leukemia cell differentiation protein Mcl-1 (Homo sapiens)) for the entry "CN1CCC(N(C)c2nc(-c3ccc([N+](=O)[O-])cc3)nc3ccccc23)CC1"
a: 3.99 µM (active)

q: Find IC50 (Induced myeloid leukemia cell differentiation protein Mcl-1 (Homo sapiens)) for the entry "COc1ccc(-c2nn(CCC(=O)O)cc2/C=C2\SC(N)=NC2=O)cc1OC"
a: 4.63 µM (active)

q: Find IC50 (Induced myeloid leukemia cell differentiation protein Mcl-1 (Homo sapiens)) for the entry "COc1ccc(C(=O)Nc2cccc(/C=C(\CCC(=O)O)c3nc4ccccc4s3)c2)cc1"
a: 4.32 µM (active)
